System: p53 signaling (p53RE-bla HCT-116 cells)
readout_name: p53 activation EC50, cherry pick confirmation

For orientation, consider the following solved cases.
# compound, obs_value
data = [
    ("Cc1cc(=O)oc2cc(N(C)C)ccc12", "inactive"),
    ("CCOP(=S)(NC(C)C)Oc1ccccc1C(=O)OC(C)C (stereo not shown)", "inactive"),
    ("CC[n+]1c(-c2ccccc2)c2cc(N)ccc2c2ccc(N)cc21 [Ethidium bromide]", "inactive"),
    ("c1cc2ccc3cccc4ccc(c1)c2c34", "inactive"),
    ("Oc1c(Cl)cc(Cl)c(Cl)c1Cc1c(O)c(Cl)cc(Cl)c1Cl", "inactive"),
    ("CCSC(=O)N1CCCCCC1 [Molinate]", "inactive"),
    ("Oc1ccc(OCc2ccccc2)cc1", "inactive"),
    ("Nc1ncn([C@@H]2O[C@H](CO)[C@@H](O)[C@H]2O)c(=O)n1", "inactive"),
]

In: Consider the compound "c1ccc2c(c1)-c1cccc3cccc-2c13" and give its measured p53 activation EC50, cherry pick confirmation.
Out: inactive

In: Next compound: CC1CCC(C(C)C)C(OC(=O)c2ccccc2N)C1 (stereo not shown) [Menthyl anthranilate]
Out: inactive
